Molecular target: GST-tagged truncated human mutant G2019S LRRK2 (Homo sapiens (Human), UniProt Q5S007, G2019S)
Sequence (Q5S007 970-2527 G2019S): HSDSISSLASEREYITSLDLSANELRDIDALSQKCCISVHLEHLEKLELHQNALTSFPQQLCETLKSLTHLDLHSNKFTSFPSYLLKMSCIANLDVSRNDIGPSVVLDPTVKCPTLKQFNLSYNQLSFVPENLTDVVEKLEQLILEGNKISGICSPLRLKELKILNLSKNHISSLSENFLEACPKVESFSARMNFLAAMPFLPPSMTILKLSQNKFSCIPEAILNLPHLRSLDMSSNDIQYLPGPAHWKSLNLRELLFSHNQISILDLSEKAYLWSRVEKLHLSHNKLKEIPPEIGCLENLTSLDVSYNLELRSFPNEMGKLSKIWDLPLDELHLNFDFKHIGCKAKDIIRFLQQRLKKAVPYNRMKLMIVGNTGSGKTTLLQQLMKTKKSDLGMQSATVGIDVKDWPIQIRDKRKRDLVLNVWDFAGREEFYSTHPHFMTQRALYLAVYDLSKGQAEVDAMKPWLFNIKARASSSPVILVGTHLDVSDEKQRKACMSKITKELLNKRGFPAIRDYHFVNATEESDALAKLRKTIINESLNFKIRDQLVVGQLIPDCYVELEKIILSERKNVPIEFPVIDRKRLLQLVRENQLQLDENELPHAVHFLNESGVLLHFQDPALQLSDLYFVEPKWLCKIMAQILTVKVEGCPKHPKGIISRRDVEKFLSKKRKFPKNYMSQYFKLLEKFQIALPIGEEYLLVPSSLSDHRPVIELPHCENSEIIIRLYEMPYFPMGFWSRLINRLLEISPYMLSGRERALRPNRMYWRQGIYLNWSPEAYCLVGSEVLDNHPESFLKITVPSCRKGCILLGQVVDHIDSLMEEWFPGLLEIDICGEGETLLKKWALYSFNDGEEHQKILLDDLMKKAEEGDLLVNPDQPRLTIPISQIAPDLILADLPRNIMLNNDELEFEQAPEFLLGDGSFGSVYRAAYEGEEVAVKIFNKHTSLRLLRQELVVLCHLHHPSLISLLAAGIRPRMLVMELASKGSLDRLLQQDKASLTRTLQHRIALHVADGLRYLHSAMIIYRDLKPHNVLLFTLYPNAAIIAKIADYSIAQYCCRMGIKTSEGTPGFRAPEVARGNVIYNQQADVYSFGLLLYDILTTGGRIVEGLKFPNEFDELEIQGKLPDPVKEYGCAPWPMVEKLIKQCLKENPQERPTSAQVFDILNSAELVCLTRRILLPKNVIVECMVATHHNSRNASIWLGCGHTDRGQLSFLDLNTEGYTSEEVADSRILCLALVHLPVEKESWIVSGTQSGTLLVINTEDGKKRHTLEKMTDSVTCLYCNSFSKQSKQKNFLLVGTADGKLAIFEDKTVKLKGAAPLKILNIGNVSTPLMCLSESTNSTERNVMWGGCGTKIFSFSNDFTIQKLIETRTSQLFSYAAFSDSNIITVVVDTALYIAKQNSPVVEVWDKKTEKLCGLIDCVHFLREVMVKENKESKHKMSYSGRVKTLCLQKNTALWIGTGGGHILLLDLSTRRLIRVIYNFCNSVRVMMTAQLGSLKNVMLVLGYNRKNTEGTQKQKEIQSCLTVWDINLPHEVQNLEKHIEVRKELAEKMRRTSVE
Assay: LRRK2 Km ATP LanthaScreen Assay
Conditions: 134 μM ATP (Km ATP); fluorescein-labeled LRRKtide substrate; mean IC50 values
pIC50: −log10 of the molar value.
Listed here: items and their measured pIC50.

{"compound": "CC1C(C(C)(C)O)CCN1c1cc(-n2ncc3ccc(C4(C#N)CC5(CC5)C4)cc32)ncn1 (single isomer, unassigned) [Example 38]", "pIC50": 7.23}
{"compound": "Cc1nc(N2CC[C@@H](O)[C@@H](F)C2)cc(-n2ncc3ccc(C4(C#N)CC5(CC5)C4)cc32)n1 [Example 4]", "pIC50": 8.13}
{"compound": "C[C@H]1CN(c2cc(-n3ncc4ccc(C5(C#N)CC6(CC6)C5)cc43)ncn2)CCO1 [Example 42]", "pIC50": 8.25}
{"compound": "CC(C)(O)C1CN(c2cc(-n3ncc4ccc(C5(C#N)CC6(CC6)C5)cc43)ncn2)CC1F (single isomer, unassigned) [Example 23]", "pIC50": 8.34}
{"compound": "CN1CCN(c2cc(-n3ncc4ccc(C5(C#N)CC6(CC6)C5)cc43)ncn2)CC1CO (single isomer, unassigned) [Example 16]", "pIC50": 8.92}
{"compound": "CC1C(C(C)(C)O)CCN1c1cc(-n2ncc3ccc(C4(C#N)CC5(CC5)C4)cc32)ncn1 (single isomer, unassigned) [Example 36]", "pIC50": 8.49}

From: patent US11174248B2
